System: HONE1 cell line
Test summary: Cytotoxicity against human HONE1 cells after 48 hrs by MTT assay
Assay type: functional, cell-based
Assay conditions: HONE1, 48 h
pIC50: −log10 of the molar value.
Measured pIC50, listed per entry for reference.

{"Cpd smiles": "C=C1C(=O)O[C@@H]2[C@@H]3[C@@]4(C=C[C@@]3(C)[C@]3(C4)C(=O)O[C@@H]4[C@H]5C(C)=CC(=O)C5=C(C)CC[C@H]43)[C@](C)(O)CC[C@@H]12", "Value qualifier": "<", "pIC50": 5.00}
{"Cpd smiles": "C=C1C(=O)O[C@H]2[C@H]1[C@@H](OC(=O)/C(C)=C/C)C[C@@](C)(O)[C@]13C=C[C@](C)([C@H]21)[C@]1(C3)C(=O)O[C@@H]2[C@H]3C(C)=CC[C@H]3[C@](C)(O)C[C@H](OC(=O)/C(C)=C/C)[C@H]21", "Value qualifier": "=", "pIC50": 5.46}

====

System: HONE1 cell line
Test summary: Cytotoxicity against human HONE1 cells after 48 hrs by MTT assay
Format: functional, cell-based
Assay conditions: HONE1, 48 h
pIC50: −log10 of the molar value.

{"Cpd smiles": "C/C=C(\\C)C(=O)O[C@H]1CC(C)=C2C[C@H](O)[C@](C)(O)[C@@H]2[C@H]2OC(=O)[C@@H](C)[C@@H]21", "pIC50": "< 5.00"}
{"Cpd smiles": "C=C1C(=O)O[C@H]2[C@H]1[C@@H](O)C[C@@](C)(O)[C@]13C=C[C@](C)([C@H]21)[C@]1(C3)C(=O)O[C@@H]2[C@H]3C(C)=CC[C@H]3[C@](C)(O)C[C@H](OC(=O)/C(C)=C\\C)[C@H]21", "pIC50": "< 5.00"}
{"Cpd smiles": "C=C1C(=O)O[C@@H]2[C@H]3C(C)=CC[C@H]3[C@](C)(O)C[C@H](OC(=O)/C(C)=C/C)[C@@H]12", "pIC50": 5.19}

====

Tested on: CNE-2
Test summary: Cytotoxicity against human CNE2 cells after 48 hrs by MTT assay
Assay type: functional, cell-based
Assay conditions: CNE-2, 48 h
pIC50: −log10 of the molar value.
Measured pIC50, listed per entry for reference.

{"Cpd smiles": "C=C1C(=O)O[C@H]2[C@H]1[C@@H](O)C[C@@](C)(O)[C@]13C=C[C@](C)([C@H]21)[C@]1(C3)C(=O)O[C@@H]2[C@H]3C(C)=CC[C@H]3[C@](C)(O)C[C@H](OC(=O)/C(C)=C\\C)[C@H]21", "pIC50": "< 5.00"}
{"Cpd smiles": "C=C1C(=O)O[C@@H]2[C@@H]3[C@@]4(C=C[C@@]3(C)[C@]3(C4)C(=O)O[C@@H]4[C@H]5C(C)=CC[C@H]5[C@](C)(O)C[C@H](OC(=O)/C(C)=C/C)[C@H]43)[C@](C)(O)CC[C@@H]12", "pIC50": "< 5.00"}
{"Cpd smiles": "CC1=CC[C@@H]2[C@H]1[C@H]1OC(=O)[C@@H](C)[C@@H]1[C@H](O)C[C@@]2(C)O", "pIC50": "< 5.00"}
{"Cpd smiles": "C=C1C(=O)O[C@@H]2[C@H]3C(C)=CC[C@H]3[C@](C)(O)C[C@H](OC(=O)/C(C)=C/C)[C@@H]12", "pIC50": "< 5.00"}
{"Cpd smiles": "C=C1C(=O)O[C@@H]2[C@H]3C(C)=CC[C@H]3[C@](C)(O)C[C@H](OC(=O)/C(C)=C\\C)[C@@H]12", "pIC50": 5.13}
